Compiled from multiple publications: pIC50 readings for the protein given by its sequence.
Sequence of the target: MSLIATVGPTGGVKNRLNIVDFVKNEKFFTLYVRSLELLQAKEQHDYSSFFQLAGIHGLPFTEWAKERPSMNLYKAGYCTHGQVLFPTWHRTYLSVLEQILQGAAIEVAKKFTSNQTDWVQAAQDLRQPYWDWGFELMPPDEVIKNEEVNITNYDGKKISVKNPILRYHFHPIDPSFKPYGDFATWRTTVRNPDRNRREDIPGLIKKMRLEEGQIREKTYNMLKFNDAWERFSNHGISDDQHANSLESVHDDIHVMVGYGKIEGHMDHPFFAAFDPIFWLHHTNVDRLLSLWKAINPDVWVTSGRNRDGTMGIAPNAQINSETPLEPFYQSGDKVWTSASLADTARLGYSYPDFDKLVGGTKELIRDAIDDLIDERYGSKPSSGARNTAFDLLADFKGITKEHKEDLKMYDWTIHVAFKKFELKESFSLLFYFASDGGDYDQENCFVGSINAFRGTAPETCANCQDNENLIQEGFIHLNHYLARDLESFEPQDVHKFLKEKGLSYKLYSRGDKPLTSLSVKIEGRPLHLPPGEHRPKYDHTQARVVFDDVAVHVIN
pIC50: −log10 of the molar value.
Quantity Name: pIC50

Completed entries (count: 2):
INSERT INTO measurements (compound, quantity_name, observed_result) VALUES
  ('CC(C)=CCc1cc2cc(-c3cc(O)cc(O)c3)oc2cc1O', 'pIC50', 6.03),
  ('C[C@H](CCc1ccc(O)cc1O)O[C@@H]1O[C@H](CO)[C@@H](O)[C@H](O)[C@H]1O', 'pIC50', 5.64);

A. NC(=S)N/N=C(/C(=O)c1ccccc1)c1ccccc1
B. COc1ccc(C(=O)N2CCN(Cc3ccc(F)cc3)CC2)cc1
C. O=C(NCc1ccc(O)cc1O)c1ccc(O)cc1O
D. C/C(=N/NC(N)=S)c1ccc(Br)cc1
Query string: Please put the entries in order of rising pIC50. Please reply with the labels ordered as requested. Many thanks.
Result string: A, B, C, D

---

Compiled from multiple publications: IC50 readings for UniProt:O42713.
Quantity Name: IC50 (µM)

Completed entries (count: 10):
INSERT INTO assay_data (molecule, observed_result) VALUES
  ('CC(=O)N1N=C(c2ccc(O)cc2O)CC1c1ccc(O)c(O)c1 (stereo not given)', 2.74),
  ('COc1cc(/C=C/C=O)ccc1O', 240),
  ('CCc1ccccc1NC(N)=S', 27.1),
  ('O=C(/C=C/c1ccc(O)c(O)c1)O[C@H](Cc1ccc(O)c(O)c1)C(=O)O', 250),
  ('COCCOCCOCCOC(=O)/C=C/c1cc(=O)c(O)co1', 67.6),
  ('CCCOC1Cc2c(C(C)=O)c(O)c3ccccc3c2O1 (stereo not given)', 31.1),
  ('Brc1ccc(-c2csc(N/N=C/c3cc4ccccc4s3)n2)cc1', 433),
  ('COc1ccc(/C=C/C(=O)NCCc2c[nH]c3ccc(O)cc23)cc1', 23.8),
  ('CC(=O)C1=C(C)NC(=S)NC1c1ccc(O)cc1 (stereo not given)', 12300),
  ('O=C1/C(=C/c2ccc(O)cc2)CC/C1=C\c1ccc(O)cc1O', 1.74);

a. O=C(NCc1ccccc1)c1ccccc1
b. C[C@H](CCc1ccc(O)cc1O)O[C@@H]1OC[C@@H](O)[C@H](O)[C@H]1O
Query string: Looking at recorded values for IC50, does a or b come in lower? Give the label of your selection.
Result string: b
(b: 1.72 µM, a: 1990 µM)
